# credit: PubChem BioAssay (EPA / NIEHS)

Test: CCTE_Deisenroth_5AR_NBTE_acceptor: CCTE's 5alpha-reductase NanoBRET Target Engagement Assay - Autofluorescence Screen, Deisenroth Lab (AID 2284321);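 further: compound fluorescence in the acceptor channel under 460 nm excitation flags autofluorescence artifacts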
Details: actives raise or lower the signal
Method: CCTE_Deisenroth_5AR NBTE (5alpha-reductase NanoBRET Target Engagement Assay) is a cell-based, single-readout assay that uses HEK293T, a human kidney cell line, with measurements taken at 5 hours after chemical dosing in a 384 well plate. This assay includes a primary and secondary screen as well as an autofluorscence screen.CCTE_Deisenroth_5AR NBTE_acceptor is one of four assay components measured from the CCTE_Deisenroth_5AR NBTE assay. […]
Active and inactive are the calls of the source. How the source made its calls: active means hit-call score of the fitted dose curve at least 0.9, where 1 is the maximum; inactive means score below 0.9.
The reply should name one outcome from True for active, False for inactive

Exercise: Check the results log: what was the call for O=c1[nH]c(=O)n(Cl)c(=O)n1Cl ?
Solution: False

Exercise: Check the results log: what was the call for O=S1(=O)OC(c2cc(Br)c(O)c(Br)c2)(c2cc(Br)c(O)c(Br)c2)c2ccccc21 ?
Solution: False

###

target: Retinoic acid receptor alpha (Homo sapiens); assay: ATG_DR5_RAR_CIS: Attagene CIS-FACTORIAL HepG2 Assay for human Retinoic Acid Receptor Alpha (RARE), DR5 submotif (AID 2282934); settings: HepG2 Attagene cis-factorial RARE DR5 reporter, mRNA; actives raise or lower the signal
Activity calls are given as the source filed them. Rule for the calls: active = hit-call score of the fitted dose curve at least 0.9, where 1 is the maximum; inactive = score below 0.9.
The reply should name one outcome from y = active, n = inactive

Here's what some known entries look like.
| input-smiles | test-system | assigned-label |
| --- | --- | --- |
| O=S(=O)(c1ccc(Cl)cc1)c1cc(Cl)c(Cl)cc1Cl | Retinoic acid receptor alpha (Homo sapiens) | y |
| OC[C@@H](O)[C@H]1O[C@@H]2O[C@H](C(Cl)(Cl)Cl)O[C@@H]2[C@H]1O | Retinoic acid receptor alpha (Homo sapiens) | n |

Exercise: Check the results log: what was the call for ClCc1ccccc1CCl ?
Solution: n

Exercise: Check the results log: what was the call for COC(=O)Nc1cccc(OC(=O)Nc2cccc(C)c2)c1 ?
Solution: n

Exercise: Check the results log: what was the call for C#C[C@]1(O)CC[C@H]2[C@@H]3CCC4=CC(=O)CC[C@]4(C)[C@H]3CC[C@@]21C ?
Solution: n

Exercise: Check the results log: what was the call for O=NN1CCOCC1 ?
Solution: n

Exercise: Check the results log: what was the call for CCCCOP(=O)(CCCC)OCCCC ?
Solution: n

###

assay: CEETOX_H295R_CORTISOL: CeeTox H295R High-throughput Steroidogenesis Assay for Cortisol (AID 2283438); conditions: actives raise or lower the signal;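 further: cortisol secreted into medium quantified by LC-MS/MS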
Calls of active or inactive are those of the source. How the source made its calls: active means hit-call score of the fitted dose curve at least 0.9, where 1 is the maximum; inactive means score below 0.9.
The reply should name one outcome from YES for active, NO for inactive

| input-smiles | assigned-label |
| --- | --- |
| O=[N+]([O-])c1ccc(Nc2ccccc2)cc1 | NO |

Exercise: Check the results log: what was the call for CCCCCCCCCCCCN(C)C ?
Solution: NO

Exercise: Check the results log: what was the call for C[C@]12CC[C@@H](O)C[C@@H]1CC[C@@H]1[C@@H]2CC[C@]2(C)C(=O)CC[C@@H]12 ?
Solution: NO

Exercise: Check the results log: what was the call for CC(C)(C)c1ccccc1O ?
Solution: NO

Exercise: Check the results log: what was the call for CCOP(=O)(OCC)OC(=CCl)c1ccc(Cl)cc1Cl ?
Solution: YES

###

assay: ATG_NF_kB_CIS: Attagene CIS-FACTORIAL HepG2 Assay for human Nuclear Factor Kappa B (NF-kB) (AID 2282991); conditions: HepG2 Attagene cis-factorial NF-kB reporter mRNA; actives raise or lower the signal
Calls of active or inactive are those of the source. Rule for the calls: active = hit-call score of the fitted dose curve at least 0.9, where 1 is the maximum; inactive = score below 0.9.
The reply should name one outcome from true (1) (active), false (0) (inactive)

| input-smiles | assigned-label |
| --- | --- |
| OC[C@@H](O)[C@H]1O[C@@H]2O[C@H](C(Cl)(Cl)Cl)O[C@@H]2[C@H]1O | false (0) |
| Oc1ccc(Cc2ccc(O)cc2)cc1 | false (0) |
| O=NN1CCCCCCC1 | false (0) |
| [Cl][Sn]([c]1ccccc1)([c]1ccccc1)[c]1ccccc1 | true (1) |
| C[C@]12CC[C@@H](O)C[C@@H]1CC[C@@H]1[C@@H]2CC[C@]2(C)C(=O)CC[C@@H]12 | false (0) |

Exercise: Check the results log: what was the call for O=C(CCl)NCO ?
Solution: false (0)

Exercise: Check the results log: what was the call for CCOP(=O)(OCC)OC(=CCl)c1ccc(Cl)cc1Cl ?
Solution: false (0)

###

Read-out: Interleukin 17A (IL17A), IL17A (gene 3605)
Experiment: BSK_BT_xIL17A: BioMAP Diversity Plus: BT Assay for Interleukin 17A (IL17A) Biomarker Activity (AID 2284229)
Conditions: primary human B cells with PBMC
Experimental: BSK_BT is a cell-based, multiplexed-readout assay that uses B cell and peripheral blood mononuclear cells, a human vascular primary cell co-culture, with measurements taken at 24 hours after chemical dosing in a microplate: 96-well plate.BSK_BT_xIL17A is an assay component measured in the BSK_BT assay. […] Using a type of cytokine quantitation reporter, gain or loss-of-signal activity can be used to understand protein changes. […]
Activity calls are given as the source filed them. How the source made its calls: active means hit-call score of the fitted dose curve at least 0.9, where 1 is the maximum; inactive means score below 0.9.
The reply should name one outcome from yes = active, no = inactive

Here's what some known entries look like.
| compound | assigned-label |
| --- | --- |
| c1ccc2sc(SNC3CCCCC3)nc2c1 | yes |
| O=S(=O)(C(Cl)(Cl)Cl)C(Cl)(Cl)Cl | yes |
| C#CCOC(=O)/C=C(C)/C=C/CC(C)CCCC(C)C (stereo not given) | no |
| Cc1cccc(OP(=O)(Oc2cccc(C)c2)Oc2cccc(C)c2)c1 | no |
| Cc1cc(Cl)ccc1N | no |
| CCCCN(CCCC)C(=S)[S-].CCCCN(CCCC)C(=S)[S-].[Ni+2] | no |
| Oc1ccc(Cc2ccc(O)cc2)cc1 | no |
| Cc1ccc2nc3sc(=O)sc3nc2c1 | no |
| O=[N+]([O-])c1ccc(Nc2ccccc2)cc1 | no |
| CCOP(=O)(OCC)SCCSCC | no |

Exercise: Check the results log: what was the call for N#CCCC(Br)(C#N)CBr (stereo not given) ?
Solution: yes

Exercise: Check the results log: what was the call for NC(=O)CCl ?
Solution: no

Exercise: Check the results log: what was the call for CCOC(=O)C(SP(=S)(OC)OC)c1ccccc1 (stereo not given) ?
Solution: no

Exercise: Check the results log: what was the call for CC(C)=CC1C(C(=O)OCc2cccc(Oc3ccccc3)c2)C1(C)C (stereo not given) ?
Solution: no

Exercise: Check the results log: what was the call for Oc1cccc(-c2ccccc2)c1 ?
Solution: no

Exercise: Check the results log: what was the call for CCOP(=S)(OCC)SCS(=O)(=O)C(C)(C)C ?
Solution: no

Exercise: Check the results log: what was the call for O=C(O)COc1cc(Cl)c(Cl)cc1Cl ?
Solution: no

Exercise: Check the results log: what was the call for C=CC(Cl)CCl (stereo not given) ?
Solution: no

###

experiment: ATG_CRE_CIS: Attagene CIS-FACTORIAL HepG2 Assay for human cAMP Responsive Element (CRE) binding protein 3 (AID 2282926); details: HepG2 CRE cis-reporter, Attagene multiplexed mRNA; actives raise or lower the signal
Calls of active or inactive are those of the source. How the source made its calls: active means hit-call score of the fitted dose curve at least 0.9, where 1 is the maximum; inactive means score below 0.9.
The reply should name one outcome from active, inactive

Here's what some known entries look like.
| compound | assigned-label |
| --- | --- |
| O=C1C=CC(=O)c2ccccc21 | inactive |
| COc1ccc([N+](=O)[O-])cc1O | inactive |
| C[N+](C)(C)Cc1ccccc1 | inactive |
| CCCCOC(=O)COC(=O)c1ccccc1C(=O)OCCCC | inactive |
| C=CCc1ccccc1O | inactive |
| CCOP(=O)(OCC)SCCSCC | inactive |

Exercise: Check the results log: what was the call for O=CCCl ?
Solution: active

Exercise: Check the results log: what was the call for O=S1OC[C@@H]2[C@H](CO1)[C@]1(Cl)C(Cl)=C(Cl)[C@@]2(Cl)C1(Cl)Cl (stereo partly drawn) ?
Solution: inactive

Exercise: Check the results log: what was the call for CS(=O)(=O)c1ccc(C(=O)C2C(=O)CCCC2=O)c(Cl)c1COCC(F)(F)F ?
Solution: inactive

Exercise: Check the results log: what was the call for CC(C)[C@@H](Nc1ccc(C(F)(F)F)cc1Cl)C(=O)OC(C#N)c1cccc(Oc2ccccc2)c1 (stereo partly drawn) ?
Solution: inactive

Exercise: Check the results log: what was the call for OC(Cc1ccccc1Cl)(Cn1cncn1)C1(Cl)CC1 (stereo not drawn) ?
Solution: inactive

Exercise: Check the results log: what was the call for CCCCCCCCBr ?
Solution: inactive

Exercise: Check the results log: what was the call for CCC[CH2][Sn]([Cl])([Cl])[CH2]CCC ?
Solution: active

###

assay: CCTE_Shafer_MEA_acute_synchrony_index: CCTE's Neural Acute Assay for Synchrony, Shafer Lab (AID 2284027);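 further: network synchrony index of spontaneous spiking in primary rat cortical neurons on MEAs; fitted for loss of signal so actives lower synchrony relative to DMSO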
Calls of active or inactive are those of the source. The calls were made as follows: active = hit-call score of the fitted dose curve at least 0.9, where 1 is the maximum; inactive = score below 0.9.
observable: AC50

Example results:
| input-smiles | observable | measured-value |
| --- | --- | --- |
| CCCCOC(=O)COC(=O)c1ccccc1C(=O)OCCCC | AC50 | inactive |
| CN(C)C(=S)S | AC50 | inactive |
| O=C(Cc1ccccc1)OCCc1ccccc1 | AC50 | inactive |
| Clc1cccc(Cl)c1Cl | AC50 | inactive |
| Cc1ccccc1OP(=O)(Oc1ccccc1C)Oc1ccccc1C | AC50 | 28.1 µM (active) |
| OCCCCO | AC50 | inactive |

Field: next compound
Exercise: Quickly give me recorded AC50 for Cc1cc(C(F)(C(F)(F)F)C(F)(F)F)ccc1NC(=O)c1cccc(I)c1C(=O)NC(C)(C)CS(C)(=O)=O
Solution: 5.74 µM (active)
